Data credit: the supplement of paper PMC5998384

# Test system: HeLa Kyoto;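 further: synchronized HeLa Kyoto cells (double thymidine block for G1/S, nocodazole release for mitosis), protein amounts in NP-40 versus SDS lysates quantified by mass spectrometry, three biological replicates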
# assayText: solubility change mitosis vs G1/S (difference of NP-40 vs SDS log2 ratios) (log2 ratio difference); higher = more soluble in mitosis
Give solubility change mitosis (log2) for every item shown.
One number for each entry.

Examples with their reported solubility change mitosis (log2) follow.
MAAAFRKAAKSRQREHRERSQPGFRKHLGLLEKKKDYKLRADDYRKKQEYLKALRKKALEKNPDEFYYKMTRVKLQDGVHIIKETKEEVTPEQLKLMRTQDVKYIEMKRVAEAKKIERLKSELHLLDFQGKQQNKHVFFFDTKKEVEQFDVATHLQTAPELVDRVFNRPRIETLQKEKVKGVTNQTGLKRIAKERQKQYNCLTQRIEREKKLFVIAQKIQTRKDLMDKTQKVKVKKETVNSPAIYKFQSRRKR [UTP11L]    1.5
MADGQMPFSCHYPSRLRRDPFRDSPLSSRLLDDGFGMDPFPDDLTASWPDWALPRLSSAWPGTLRSGMVPRGPTATARFGVPAEGRTPPPFPGEPWKVCVNVHSFKPEELMVKTKDGYVEVSGKHEEKQQEGGIVSKNFTKKIQLPAEVDPVTVFASLSPEGLLIIEAPQVPPYSTFGESSFNNELPQDSQEVTCT [HSPB8]    0.167
MAPWGKRLAGVRGVLLDISGVLYDSGAGGGTAIAGSVEAVARLKRSRLKVRFCTNESQKSRAELVGQLQRLGFDISEQEVTAPAPAACQILKEQGLRPYLLIHDGVRSEFDQIDTSNPNCVVIADAGESFSYQNMNNAFQVLMELEKPVLISLGKGRYYKETSGLMLDVGPYMKALEYACGIKAEVVGKPSPEFFKSALQAIGVEAHQAVMIGDDIVGDVGGAQRCGMRALQVRTGKFRPSDEHHPEVKADGYVDNLAEAVDLLLQHADK [LHPP]    0.0085
MAAEEKDPLSYFAAYGSSSSGSSDEEDNIEPEETSRRTPDPAKSAGGCRNKAEKRLPGPDELFRSVTRPAFLYNPLNKQIDWERHVVKAPEEPPKEFKIWKSNYVPPPETYTTEKKPPPPELDMAIKWSNIYEDNGDDAPQNAKKARLLPEGEETLESDDEKDEHTSKKRKVEPGEPAKKKK [C1ORF52]    0.413
MSTGGDFGNPLRKFKLVFLGEQSVGKTSLITRFMYDSFDNTYQATIGIDFLSKTMYLEDRTVRLQLWDTAGQERFRSLIPSYIRDSTVAVVVYDITNVNSFQQTTKWIDDVRTERGSDVIIMLVGNKTDLADKRQVSIEEGERKAKELNVMFIETSAKAGYNVKQLFRRVAAALPGMESTQDRSREDMIDIKLEKPQEQPVSEGGCSC [RAB6A]    -0.0808
MLGGSLGSRLLRGVGGSHGRFGARGVREGGAAMAAGESMAQRMVWVDLEMTGLDIEKDQIIEMACLITDSDLNILAEGPNLIIKQPDELLDSMSDWCKEHHGKSGLTKAVKESTITLQQAEYEFLSFVRQQTPPGLCPLAGNSVHEDKKFLDKYMPQFMKHLHYRIIDVSTVKELCRRWYPEEYEFAPKKAASHRALDDISESIKELQFYRNNIFKKKIDEKKRKIIENGENEKTVS [REXO2]    0.144
MALKAEGAALDCFEVTLKCEEGEDEEEAMVVAVIPRPEPMLRVTQQEKTPPPRPSPLEAGSDGCEEPKQQVSWEQEFLVGSSPGGSGRALCMVCGAEIRAPSADTARSHILEQHPHTLDLSPSEKSNILEAWSEGVALLQDVRAEQPSPPNSDSGQDAHPDPDANPDAARMPAEIVVLLDSEDNPSLPKRSRPRGLRPLELPAVPATEPGNKKPRGQRWKEPPGEEPVRKKRGRPMTKNLDPDPEPPSPDSPTETFAAPAEVRHFTDGSFPAGFVLQLFSHTQLRGPDSKDSPKDREVAEGGLPRAESPSPAPPPGLRGTLDLQVIRVRMEEPPAVSLLQDWSRHPQGTKRVGAGDTSDWPTVLSESSTTVAGKPEKGNGV [C11ORF84]    0.023
MFKKFDEKENVSNCIQLKTSVIKGIKNQLIEQFPGIEPWLNQIMPKKDPVKIVRCHEHIEILTVNGELLFFRQREGPFYPTLRLLHKYPFILPHQQVDKGAIKFVLSGANIMCPGLTSPGAKLYPAAVDTIVAIMAEGKQHALCVGVMKMSAEDIEKVNKGIGIENIHYLNDGLWHMKTYK [MCTS1]    -0.0597

Okay, here is my list. What is solubility change mitosis (log2) for each of these?
1. MSGPRPVVLSGPSGAGKSTLLKRLLQEHSGIFGFSVSHTTRNPRPGEENGKDYYFVTREVMQRDIAAGDFIEHAEFSGNLYGTSKVAVQAVQAMNRICVLDVDLQGVRNIKATDLRPIYISVQPPSLHVLEQRLRQRNTETEESLVKRLAAAQADMESSKEPGLFDVVIINDSLDQAYAELKEALSEEIKKAQRTGA [GUK1]
2. MAKGDPKKPKGKMSAYAFFVQTCREEHKKKNPEVPVNFAEFSKKCSERWKTMSGKEKSKFDEMAKADKVRYDREMKDYGPAKGGKKKKDPNAPKRPPSGFFLFCSEFRPKIKSTNPGISIGDVAKKLGEMWNNLNDSEKQPYITKAAKLKEKYEKDVADYKSKGKFDGAKGPAKVARKKVEEEDEEEEEEEEEEEEEEDE [HMGB3]

-- reply
[0.047, 0.349]

Okay, here is my list. What is solubility change mitosis (log2) for each of these?
1. MSNMEKHLFNLKFAAKELSRSAKKCDKEEKAEKAKIKKAIQKGNMEVARIHAENAIRQKNQAVNFLRMSARVDAVAARVQTAVTMGKVTKSMAGVVKSMDATLKTMNLEKISALMDKFEHQFETLDVQTQQMEDTMSSTTTLTTPQNQVDMLLQEMADEAGLDLNMELPQGQTGSVGTSVASAEQDELSQRLARLRDQV [CHMP1B]
2. MAAVDSFYLLYREIARSCNCYMEALALVGAWYTARKSITVICDFYSLIRLHFIPRLGSRADLIKQYGRWAVVSGATDGIGKAYAEELASRGLNIILISRNEEKLQVVAKDIADTYKVETDIIVADFSSGREIYLPIREALKDKDVGILVNNVGVFYPYPQYFTQLSEDKLWDIINVNIAAASLMVHVVLPGMVERKKGAIVTISSGSCCKPTPQLAAFSASKAYLDHFSRALQYEYASKGIFVQSLIPFYVATSMTAPSNFLHRCSWLVPSPKVYAHHAVSTLGISKRTTGYWSHSIQFLFAQYMPEWLWVWGANILNRSLRKEALSCTA [HSDL1]

-- reply
1. 0.158
2. -0.155
